Biological target: UniProt P30968
Sequence (P30968 whole entry): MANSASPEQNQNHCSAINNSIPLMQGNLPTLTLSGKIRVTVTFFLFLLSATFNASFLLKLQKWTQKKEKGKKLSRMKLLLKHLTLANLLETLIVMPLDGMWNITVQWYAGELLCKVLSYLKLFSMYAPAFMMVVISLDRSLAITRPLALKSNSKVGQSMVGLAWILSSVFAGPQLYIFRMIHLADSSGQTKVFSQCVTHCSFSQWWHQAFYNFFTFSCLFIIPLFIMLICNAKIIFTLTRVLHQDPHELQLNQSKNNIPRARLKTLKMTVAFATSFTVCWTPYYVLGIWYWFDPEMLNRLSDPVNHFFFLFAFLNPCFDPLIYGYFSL
Test: Inhibition of [125I]leuprorelin binding to human recombinant LHRH receptor expressed in CHO cells
Format: cell-based
Details: cho
RECORDED_METRIC: IC50

CCOC(=O)c1cn(Cc2ccccc2F)c2sc(-c3ccc(OC)cc3)c(CN(C)Cc3ccccc3)c2c1=O 30 nM

* * *

Experiment: Distribution coefficient, log D of the compound
Settings: octanol/water
RECORDED_METRIC: logD

CC(C)C(=O)Nc1ccc(-c2sc3c(c2CN(C)Cc2ccccc2)c(=O)c(C(=O)C(C)C)cn3Cc2c(F)cccc2F)cc1 6.33

The origin of these recorded values is ChEMBL document CHEMBL1138053.
